The origin of these recorded values is paper PMC8922275.

TARGET OR SYSTEM: DnaE (Staphylococcus aureus, UniProt Q5HF71)
Sequence (Q5HF71 whole entry): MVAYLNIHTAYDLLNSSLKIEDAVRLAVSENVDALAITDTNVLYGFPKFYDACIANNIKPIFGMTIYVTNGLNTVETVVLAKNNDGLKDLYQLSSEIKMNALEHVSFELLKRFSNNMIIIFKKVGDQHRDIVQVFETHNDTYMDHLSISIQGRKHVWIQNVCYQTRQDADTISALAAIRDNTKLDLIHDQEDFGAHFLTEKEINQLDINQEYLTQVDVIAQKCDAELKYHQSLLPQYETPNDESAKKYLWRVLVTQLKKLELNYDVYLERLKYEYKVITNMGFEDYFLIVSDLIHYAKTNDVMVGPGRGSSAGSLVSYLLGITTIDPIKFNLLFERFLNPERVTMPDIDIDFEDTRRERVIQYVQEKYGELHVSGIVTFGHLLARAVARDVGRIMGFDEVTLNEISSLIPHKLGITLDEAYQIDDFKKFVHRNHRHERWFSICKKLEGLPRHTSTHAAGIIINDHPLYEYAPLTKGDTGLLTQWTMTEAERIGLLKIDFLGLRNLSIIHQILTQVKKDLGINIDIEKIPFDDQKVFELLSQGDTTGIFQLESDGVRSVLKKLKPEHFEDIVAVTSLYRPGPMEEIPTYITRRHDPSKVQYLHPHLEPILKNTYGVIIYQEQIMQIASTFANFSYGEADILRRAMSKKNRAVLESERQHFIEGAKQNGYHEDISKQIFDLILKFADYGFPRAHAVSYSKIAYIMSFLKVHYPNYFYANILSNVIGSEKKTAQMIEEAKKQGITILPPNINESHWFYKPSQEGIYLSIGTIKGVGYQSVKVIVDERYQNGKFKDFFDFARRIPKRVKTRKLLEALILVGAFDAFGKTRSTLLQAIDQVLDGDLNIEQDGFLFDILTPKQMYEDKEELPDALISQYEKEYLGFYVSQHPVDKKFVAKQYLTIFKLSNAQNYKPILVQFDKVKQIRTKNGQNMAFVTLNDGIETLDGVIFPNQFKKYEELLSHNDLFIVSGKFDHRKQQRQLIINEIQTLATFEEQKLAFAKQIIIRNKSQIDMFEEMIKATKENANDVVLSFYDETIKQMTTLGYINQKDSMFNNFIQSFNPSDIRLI
EXPERIMENTAL READOUT: IC50 (nM)
Give your result in nM as a bare value.

**Q:** Output IC50 of COC1CC2C=CC3C4OC2(/C(C)=C/C(C)C(C(C)O)OC1=O)C3C(O)C(C)C4OC(=O)c1ccc[nH]1 (stereo not shown)
**A:** 6
